Biological target: GABARAPL2 (Homo sapiens, UniProt P60520)
Sequence (P60520 whole entry): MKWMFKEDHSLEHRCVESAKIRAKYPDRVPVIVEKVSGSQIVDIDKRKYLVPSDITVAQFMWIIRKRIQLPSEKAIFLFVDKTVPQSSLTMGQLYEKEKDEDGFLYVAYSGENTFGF
Conditions: residue F60; GABARAPL2:ligand molar ratio 1:2
reported metric: CSP (ppm)
Please reply with the bare figure in ppm and do not write the unit itself.

Prompt line: Could you tell me which CSP is on file for O=c1cc(-c2ccccc2)c2c(O)cc(O)cc2o1 ?
Response line: 0.005

Prompt line: Please do the same for O=C1Nc2ccc(I)cc2C1=Cc1cc(Br)c(O)c(Br)c1 as well.
Response line: 0.00542

Prompt line: Please do the same for Cc1ccc(C(=O)N(CCCN)[C@@H](c2nc3cc(Cl)ccc3c(=O)n2Cc2ccccc2)C(C)C)cc1 as well.
Response line: 0.005

Prompt line: Please do the same for O=C1Nc2ccc(Br)cc2C1=Cc1cc(O)c(O)c(Br)c1 as well.
Response line: 0.006
